biological target: T1, His-tagged P3028 (human, not fully specified); assay: chip ELISA
T1 construct: the tag is put first after 'PGE73=His-tag-P3028'; also called PGE73; not shown: His-tag
T1 peptide: {His‑tag}-VFDEFKPLVEEPQNLIK
No end group written: not given here.
quantity_measured: ELISA signal

KKLDTFFVKLSLFTYR [P28R E15Y] :: 340
KKLDTFFVKLRLFTER [P28R S11R] :: 333
KKLDTFFVKLSLFTVR [P28R E15V] :: 163
KKLDTFFVKLSSFTER [P28R L12S] :: 478
KTLDTFFVKLSLFTER [P28R K2T] :: 331
KKLDTFFVKSSLFTER [P28R L10S] :: 351

What value of ELISA signal has been reported for the following binder? KKLDDFFVKLSLFTER [P28R T5D]
295
